Just for reference, the supplement of paper PMC9170038 is where these values come from.

- System: MS2 coat protein
- PROTOCOL DESCRIPTION: apparent KD of MS2 coat protein; higher = weaker reporter binding
- MEASUREMENT SETUP: Eterna round: R107; input ligand: theophylline 2 mM
MEASUREMENT TYPE: apparent KD of MS2 coat protein (nM)
I only need the number, in nM, no unit after it.

CGCCACUCGAGUGAUCCUCACGAGUGGCUACGAGGACCGGUACGGCCGCCACUCGAAUUAACAUGAGGAUCACCCAUGUAAUCCA [Brourdmod09] : 400
AAAACAAACUCGGCCGCCACUCCCUCCCACCCAAGGACAUGAGGAUCACCCAUGUGGCAAAGCCCGAGGACCGGGAGAAACAAAA [Same State - Trytophan B] : 26.4
CGCAACAUGAGGAUCACCCAUGUAAUGACGCGAGGACCGGUACGGCCGCCACUCGCCUGCCAAUGAGCGCAUGCGGCCUGGGUAU [Exclusion Tryp A GF7] : 13.5
GGAUAGGACACGGCCGCCACUAGCUAGGAUACUAGCAACAUUUCCUCAUAUGAGGAUCACCCAUAUAGGACCGGGUGUCCUAUCG : 471
GACCUUAUCUGAAGGAGCGAGGUAAAUAGGGAUAGGAACAUGAGGAUCACCCAUGUGCGGCCUCAGGUAGGUCGCAGAUGAGAUU [Exclusion Arginine B GF28] : 179

Please give measured apparent KD of MS2 coat protein of the following entry: CGACACAUGAGGAUCACCCAUGUAAUGACGCGAGGACCGGUACGGCCGCCACUCGCAUGCCAAUGAGCGCAUGCGGCCUGGGUAU [Exclusion Tryp A GF6]
19.5

---

- Tested on: K4 kissing-loop RNA reporter
- PROTOCOL DESCRIPTION: apparent KD of K4 kissing-loop reporter; higher = weaker reporter binding
- MEASUREMENT SETUP: Eterna round: R107; input ligand: none
Reported apparent KD of K4 kissing-loop reporter is given for each of the following sequences.
I only need the number, in nM, no unit after it.

AAACAUCACUGGGAGUGAUGUUCUCAGUGACGAGGACCGGUACGGCCGCCACUCGCGAGAGAUAUAGGUAAGUAAUGACAUCAUU [Excl Tryptophan A V5] : 360
UUGCAUGCUAGGGAAACCUAGCAUGCAUGCCGAGGACCGGUACGGCCGCCACUCGAACGAGUGAUGUUCGUUGACCAAAAUAAAA : 337
CAUGGUGCUCGCCAGUUGUGCGAACGGUGGGAGGAUAUGUCGCGAGACAGAAGGCCCAGUGAUGUUGGGCAGGCUCGUAGAUCGA [Mazadi] : 129
GGGUGGCAGGCGGCCGCCACUCUGAGCACCCACUGAGUGAUGUUCGUGGCGUAAGCCUGUUCGUAGAGGACCGGGUUUGUUGUUC [Exclusion Tryptophan B GF 15] : 300
CCGCGGCAAGCUCCGGAACCCAUAUUCGAUACCAGCCUUAUCACGGGCCCUUGGCAGCGAGCGUUAGUGAUGUUAGCGGCAUGGU [theeternabot_sameState_KL_Theo_A_27] : 311

Please find the next sequence below.
Please give measured apparent KD of K4 kissing-loop reporter of the following entry: UAAGUGAUUCACAAGCUAGAGUUACUCGAAGGAGCGACGAAUUCGUCAGGUAGGUCGCGAGUGAUGUUCGCAUGCUCUAGCAAAU [AK1 Exc Arginine A]
704

---

Reported apparent KD of MS2 coat protein is given for each of the following sequences.
- System: MS2 coat protein
- PROTOCOL DESCRIPTION: apparent KD of MS2 coat protein, switch ON state; designed switch direction (-1 OFF switch, 1 ON switch): -1; higher = weaker reporter binding
- MEASUREMENT SETUP: FMN input: 0 or 200 uM; Eterna round: R93 (includes R88 designs)
I only need the number, in nM, no unit after it.

AAGAAUCGAGGAUAUACAUGAGGAUCACCCAUGUAAAAGAAAGAAAAGGGAAAGAAAAGUAGAAGGCGAAAGAA [Userkhaure Setnakht] : 32.8
GAGGCUGAAGGAUAUACAAGGGCCUCACCGCCAAGGCGGAAACAUGAGGAUCACCCAUGUAGAAGGUCAAUAAA [Usrisore] : 140
AAAAAGUCAGGAUAUGCUUAUAAUAAGAAAAUUAGAGAUAUGCAGAAGGGACAUGAGGAUCACCCAUGUAAAAA [Ex 4.1] : 53.2
AAAAUACAUGAGGAUCACCCAUGUGAGGAUAUGCUAUGGAAAAUAAAAAUAAAACAUAGCAGAAGGUACAAAAA [Denovo 14] : 18.2
GAAAAACAUGAGGAUCACCCAUGUAAGGAUAUGCUAAAAAACACGGAAAACGUGAAUAGCAGAAGGUACAAAAA [Mat - Exclusion 1 - Eli mod - D86] : 20.6

Please give measured apparent KD of MS2 coat protein of the following entry: AUAAUGCGAGGAUAUACAUGAGGAUCACCCAUGUAAAUCAAUAGGAGAGCCACAUUAAGUAGAAGGUGCAUUAA [JR_Exc003_Sub502]
20.4

Please give measured apparent KD of MS2 coat protein of the following entry: CAGUACUGAGGAUAUACAUGAGGAUCACCCAUGUAAAAAAGCUACGAAAGUAGCAAAUGUAGAAGGCAGUACUG [Ex3: 804]
15.5

---

- System: K4 kissing-loop RNA reporter;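 note: bound reporter read as fluorescence of individual clusters on recovered sequencing chips by microscopy, with normalized cluster intensities fitted with a binding model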
- PROTOCOL DESCRIPTION: apparent KD of K4 kissing-loop reporter; higher = weaker reporter binding
- MEASUREMENT SETUP: Eterna round: R107; input ligand: tryptophan 2.4 mM
Threshold rule: apparent KD of K4 kissing-loop reporter greater than or equal to 200 nM is TRUE; below that, FALSE.

Observe how each entry below is paired with its result.
CAUGGUGCUCGCCAGUUGUGCGAACGGUGGGAGGAUAUGUCGCGAGACAGAAGGCCCAGUGAUGUUGGGCAGGCUCGUAGAUCGA [Mazadi] : FALSE
UUCUACGUGCAAGGAUAUCCAUACGCUGCCCAGCGGGUAGCGAUAUAUGGAGUGAUGUUCCAUGUAGGAGAAGGUGCACUGUCCU [Atrea] : TRUE
GUGCGGCUAGUGAUGUUGGUUGCGUGGGAAGGAGCGCAGUAAAAUGCAGGUAGGUCGCCCGCAUCUCUGAUAAAAGAUUAAUUCA [KL-SSArg-A9] : TRUE

Quick check: does GCAGUGAUGUUGCGCGGGUACGGUGGAGUGCGAGGACCGGUACGGCCGCCACUCGUACGGAACUGGCUAAUAUAUGGAUAGGUGA [VI] have apparent KD of K4 kissing-loop reporter greater than or equal to 200 nM?
TRUE

Quick check: does `GGGUGGGUGCGAGGAUAUGGAGUGAUGUUCCAAAAGAAAAGAAGAGAAGAGAAAGAGAGAAAGAAACCAGAAGGCGCGUCCGUCC` have apparent KD of K4 kissing-loop reporter greater than or equal to 200 nM?
FALSE

Quick check: does UGGAUAUAGUGAUGUUAUAUAGAGAGUGAUACCAGUUUAGAGAAGAACCCUUGGCAGCAUAGAGAAGUAUCAUUAGAGAAGAAUG [ExTheophyl.Ap] have apparent KD of K4 kissing-loop reporter greater than or equal to 200 nM?
FALSE

---

- Tested on: MS2 coat protein
- PROTOCOL DESCRIPTION: apparent KD of MS2 coat protein, switch ON state; designed switch direction (-1 OFF switch, 1 ON switch): -1; higher = weaker reporter binding
- MEASUREMENT SETUP: FMN input: 0 or 200 uM; Eterna round: R93 (includes R88 designs)
Threshold rule: apparent KD of MS2 coat protein greater than or equal to 0.04 µM is t; below that, f.

Observe how each entry below is paired with its result.
ACUAAACGAGGAUAUACUGACAAACCUCAAACAUACAUCAAACAUGAGGAUCACCCAUGUAGAAGGCGUAAACU [JR_Exc002_Sub401] : f
GAAAGUGGAGGAUAUACAUGAGGAUCACCCAUGUGUAAAAAUAAAAACACAAAAGAAAGUAGAAGGCCACAAAG [Mat - Exclusion 3 - Mayanna mod - D116] : f
GCUGGCCUAGGAUAUACAUGAGGAUCACCCAUGUGAGAGAAAAAAGUGAGAAAGAAAAGUAGAAGGAGGUUAGG [salish99-ex3-115] : t

Quick check: does GUGUACAGAGGAUAUACAUGGGCAUGGAAACAUGCAUCCUCACAUGAGGAUCACCCAUGUAGAAGGCUGUACAC [Ex2: 708] have apparent KD of MS2 coat protein greater than or equal to 0.04 µM?
f

Quick check: does AAGAAGUGAGGAUAUGUCUGUGCGAAAAAAAAAAAGUGCAGACAGAAGGCACAUGAGGAUCACCCAUGUGAAAA [Florian 65% 4] have apparent KD of MS2 coat protein greater than or equal to 0.04 µM?
f

Quick check: does AAGAAACGAGGAUAUACAAGAAAGAAAGAAAAGAAAAGAAAACAUGAGGAUCACCCAUGUAGAAGGCGUUAGAA [EteRNA is fun!] have apparent KD of MS2 coat protein greater than or equal to 0.04 µM?
f

Quick check: does AAAAAGGGAGGAUAUACGAAACAGGGAAACCUGAAAAGGAGACAUGAGGAUCACCCAUGUAGAAGGCCCAAGAA [Clint Eastwood 64% 4] have apparent KD of MS2 coat protein greater than or equal to 0.04 µM?
f

Quick check: does AAAAAACAUGAGGAUCACCCAUGUCAGGAUAUCCGAAAAAAAAAAAAAAAAAAACCUUGGAGAAGGGACAUUCC [Chica Displaced 6 - Jieux - Exclusion 1] have apparent KD of MS2 coat protein greater than or equal to 0.04 µM?
f

Quick check: does AGCUAGUCAGGAUAUACGAACAUGUCAAAAGACGUGAAAUAACAUGAGGAUCACCCAUGUAGAAGGGACUAGCA [Mat - Exclusion 2 - JL-Eli mod - D52] have apparent KD of MS2 coat protein greater than or equal to 0.04 µM?
f

Quick check: does AGCUAGUCAGGAUAUACAAACAUGUCAAAAGACGUGAAGGAACAUGAGGAUCACCCAUGUAGAAGGGACUAGCA [Web Mod 74% 3] have apparent KD of MS2 coat protein greater than or equal to 0.04 µM?
f

Quick check: does AAGAAGUGAGGAUAUCGAAGACUGUCGAAAAGACAGUCGAACGAGAAGGCACAUGAGGAUCACCCAUGUGGAAA [Marsurpial 65% 5] have apparent KD of MS2 coat protein greater than or equal to 0.04 µM?
f

Quick check: does AAAAAGUCAGGAUAUACGGGAGUGCGAAAGCACAAAAAAAAACAUGAGGAUCACCCAUGUAGAAGGGACAAGAA [Married to this design, 61% 5] have apparent KD of MS2 coat protein greater than or equal to 0.04 µM?
t

Quick check: does AAGAACUGAGGAUAUACAAAAUAAAAGAAAAGAAAGAAAGAACAUGAGGAUCACCCAUGUAGAAGGCGGAAGAA [Wahibre Ibiau] have apparent KD of MS2 coat protein greater than or equal to 0.04 µM?
f

Quick check: does AAAGUGUGAGGAUAUGUGAAAGGACACGAAAGUGACAAAGAACAGAAGGUACAUGAGGAUCACCCAUGUAAAAA [milkweed 20] have apparent KD of MS2 coat protein greater than or equal to 0.04 µM?
f

Quick check: does AGUUGGCGAGGAUAUACAUGAGGAUCACCCAUGUGAGAGAAAAAAGUGAGAAAGAAAAGUAGAAGGCGCGGACA [Ruby 1] have apparent KD of MS2 coat protein greater than or equal to 0.04 µM?
t

Quick check: does AGGAAACAUGAGGAUCACCCAUGUCAGGAUAUUGGAAAGAAAAGAAAAGAAAGAAGAAUAAGAAGGGACAAGAA [Hor-Aha] have apparent KD of MS2 coat protein greater than or equal to 0.04 µM?
f

Quick check: does ACCUAGUCAGGAUAUACAAACAUGUCAAAAGACGUGAAAAAACAUGAGGAUCACCCAUGUAGAAGGGACUAGGA [Mat - Exclusion 2 - JL mod - D22] have apparent KD of MS2 coat protein greater than or equal to 0.04 µM?
f

Quick check: does AGUAGAUCAGGAUAUACAUGAAAGAUCAAAAUGUCCAAUAUACAUGAGGAUCACCCAUGUAGAAGGGAUCUACA [Ex2 Design 115: Not so Super Stable 2] have apparent KD of MS2 coat protein greater than or equal to 0.04 µM?
t

Quick check: does AAAUUGUCAGGAUAUCGUAGAACUCUAAAAUAGAGGAGCUACGAGAAGGGACAUGAGGAUCACCCAUGUAAAAC [May 88] have apparent KD of MS2 coat protein greater than or equal to 0.04 µM?
t

Quick check: does AAAACGGCAGGAUAUACAAUUGAGAACUAGAUCGAAAAAAAACAUGAGGAUCACCCAUGUAGAAGGGCCAAAAA [Ex2 Malc#9] have apparent KD of MS2 coat protein greater than or equal to 0.04 µM?
f
